Tested on: MDAMB361
Assay: -log10 GI50 (growth inhibition 50%) (-log10(M)); higher = more potent growth inhibition
QUANTITY KIND: -log10 GI50

>>> observed_value("CN(C)C/C=C/C(=O)Nc1cc2c(Nc3ccc(F)c(Cl)c3)ncnc2cc1O[C@H]1CCOC1")
8.21
>>> observed_value("CCCC(CCC)C(=O)O")
2.82
>>> observed_value("O=C1NC(=O)/C(=C/c2ccc(-c3ccc(F)cc3O)o2)S1")
4.78
>>> observed_value("CC[C@@]1(O)C(=O)OCc2c1cc1n(c2=O)Cc2cc3c(CN(C)C)c(O)ccc3nc2-1")
6.03
>>> observed_value("NS(=O)(=O)OC[C@@H]1C[C@@H](n2ccc3c(N[C@H]4CCc5ccccc54)ncnc32)C[C@@H]1O")
7.03
>>> observed_value("COc1cc(Nc2c(C#N)cnc3cc(OCCCN4CCN(C)CC4)c(OC)cc23)c(Cl)cc1Cl")
5.9
>>> observed_value("Oc1cc(-c2nc(-c3ccccc3)[nH]c2-c2ccncc2)ccc1Cl")
4.76
>>> observed_value("O=c1[nH]c(=O)n([C@H]2C[C@H](O)[C@@H](CO)O2)cc1F")
3.4

(1) O=c1[nH]cc(F)c(=O)[nH]1
(2) C=CCNC1=C2C[C@@H](C)C[C@H](OC)[C@H](O)[C@@H](C)/C=C(\C)[C@H](OC(N)=O)[C@@H](OC)/C=C\C=C(/C)C(=O)NC(=CC1=O)C2=O
Hey, between 1 and 2 which has a smaller measured -log10 GI50? Give the label under which the chosen entry appears.
1

(I) CCC[C@H](N[C@H]1CCc2cc(F)cc(F)c2C1)C(=O)Nc1cn(C(C)(C)CNCC(C)(C)C)cn1
(II) Cc1ccc(C(=O)N(CCCN)[C@@H](c2nc3cc(Cl)ccc3c(=O)n2Cc2ccccc2)C(C)C)cc1
Hey, between I and II which has a smaller measured -log10 GI50? Give the label under which the chosen entry appears.
I
(I: 4.41, II: 7.46)

###

Test system: MDAMB134VI
Test: -log10 GI50 (growth inhibition 50%) (-log10(M)); higher = more potent growth inhibition
QUANTITY KIND: -log10 GI50

Recorded results for 5 compounds are shown here.
>>> observed_value("N.N.[Cl][Pt][Cl] [Cisplatin]")
3.73
>>> observed_value("COc1ncc(-c2ccc3nccc(-c4ccnnc4)c3c2)cc1NS(=O)(=O)c1ccc(F)cc1F")
7.97
>>> observed_value("COc1cc2ncnc(Nc3ccc(F)c(Cl)c3)c2cc1OCCCN1CCOCC1")
4.72
>>> observed_value("C/C(=C\\c1csc(C)n1)[C@@H]1C[C@@H]2O[C@]2(C)CCC[C@H](C)[C@H](O)[C@@H](C)C(=O)C(C)(C)[C@@H](O)CC(=O)N1 [Ixabepilone]")
9
>>> observed_value("O=C1NC(=O)/C(=C/c2ccc3nccc(-c4ccncc4)c3c2)S1")
6.33

(I) CC(C)C[C@H](NC(=O)[C@H](Cc1ccccc1)NC(=O)c1cnccn1)B(O)O
(II) O=C(CCCCCCC(=O)Nc1ccccc1)NO
(III) Nc1ccn([C@@H]2O[C@H](CO)[C@@H](O)C2(F)F)c(=O)n1
// smallest -log10 GI50 at index 0, largest at the end In your reply, arrange the labels in the requested order.
III, II, I
(III: 2.85, II: 4.4, I: 8.08)

(1) O=C1c2ccccc2-[n+]2ccc3c([nH]c4ccccc43)c21
(2) CC(C)[C@H](CO)Nc1nc(Nc2cccc(Cl)c2)c2ncn(C(C)C)c2n1
Between 1 and 2 , whose recorded -log10 GI50 is greater? Give the label under which the chosen entry appears.
1

###

System: MDAMB157
Assay: -log10 GI50 (growth inhibition 50%) (-log10(M)); higher = more potent growth inhibition
QUANTITY KIND: -log10 GI50

>>> observed_value("CC/C(=C(\\c1ccccc1)c1ccc(OCCN(C)C)cc1)c1ccccc1")
4.09
>>> observed_value("O=C(O)C1(C(=O)O)CCC1.[NH2-].[NH2-].[Pt+2]")
4.07
>>> observed_value("Cc1ccc(C(=O)N(CCCN)[C@@H](c2nc3cc(Cl)ccc3c(=O)n2Cc2ccccc2)C(C)C)cc1")
7.5

(I) COc1ccc(C2=N[C@@H](c3ccc(Cl)cc3)[C@@H](c3ccc(Cl)cc3)N2C(=O)N2CCNC(=O)C2)c(OC(C)C)c1
(II) NS(=O)(=O)OC[C@@H]1C[C@@H](n2ccc3c(N[C@H]4CCc5ccccc54)ncnc32)C[C@@H]1O
Between I and II , whose recorded -log10 GI50 is greater? Give the label under which the chosen entry appears.
II
(II: 7.25, I: 4.76)

###

Tested on: MDAMB361
Assay: -log10 GI50 (growth inhibition 50%) (-log10(M)); higher = more potent growth inhibition
QUANTITY KIND: -log10 GI50

Recorded results for 2 compounds are shown here.
>>> observed_value("CC(=O)O[C@H]1C(=O)[C@@]2(C)[C@H]([C@H](OC(=O)c3ccccc3)[C@]3(O)C[C@H](OC(=O)[C@H](O)[C@@H](NC(=O)c4ccccc4)c4ccccc4)C(C)=C1C3(C)C)[C@]1(OC(C)=O)CO[C@@H]1C[C@@H]2O")
7.79
>>> observed_value("O=C(O)C1(C(=O)O)CCC1.[NH2-].[NH2-].[Pt+2]")
4.34

(P) CO[C@H]1C[C@@H]2CC[C@@H](C)[C@@](O)(O2)C(=O)C(=O)N2CCCC[C@H]2C(=O)O[C@H]([C@H](C)C[C@@H]2CC[C@@H](OCCO)[C@H](OC)C2)CC(=O)[C@H](C)/C=C(\C)[C@@H](O)[C@@H](OC)C(=O)[C@H](C)C[C@H](C)/C=C/C=C/C=C/1C
(Q) O=C(CCCCCCC(=O)Nc1ccccc1)NO
Between P and Q , whose recorded -log10 GI50 is greater? Give the label under which the chosen entry appears.
P
(P: 8.35, Q: 4.26)

###

System: LY2
Assay: -log10 GI50 (growth inhibition 50%) (-log10(M)); higher = more potent growth inhibition
QUANTITY KIND: -log10 GI50
Answer with the value's number alone.

>>> observed_value("CC(C)C[C@H](NC(=O)[C@H](Cc1ccccc1)NC(=O)c1cnccn1)B(O)O [Bortezomib]")
6.46
>>> observed_value("Cc1cncc2cccc(S(=O)(=O)N3CCCN(C(=O)CN)C[C@@H]3C)c12 [Glycyl H1152]")
6.28
>>> observed_value("O=C1C(Cl)=C(NCCN2CCOCC2)C(=O)c2ncccc21")
6.27
>>> observed_value("COc1ncc(-c2ccc3nccc(-c4ccnnc4)c3c2)cc1NS(=O)(=O)c1ccc(F)cc1F")
7.94
>>> observed_value("Cc1c(O)cccc1C(=O)N[C@@H](CSc1ccccc1)[C@H](O)CN1C[C@H]2CCCC[C@H]2C[C@H]1C(=O)NC(C)(C)C [Nelfinavir]")
5.05

Look up -log10 GI50: "CCn1cc(-c2ccnc3[nH]c(-c4cccc(CN(C)C)c4)cc23)c(-c2ccc(NC(=O)N(C)C)cc2)n1"
5.03

And the next one, "COc1ccc(-c2cc3c(C)nc(N)nc3n([C@H]3CC[C@H](OCCO)CC3)c2=O)cn1" ?
7.04

And the next one, O=c1[nH]cc(F)c(=O)[nH]1 [Fluorouracil] ?
4.43

###

System: MDAMB157
Assay: -log10 GI50 (growth inhibition 50%) (-log10(M)); higher = more potent growth inhibition
QUANTITY KIND: -log10 GI50

>>> observed_value("O=C(/C=C/C#Cc1cccc(NS(=O)(=O)c2ccccc2)c1)NO [Oxamflatin]")
6.13
>>> observed_value("O=c1[nH]c(=O)n([C@H]2C[C@H](O)[C@@H](CO)O2)cc1F [Floxuridine]")
3.87
>>> observed_value("CCc1c2c(nc3ccc(OC(=O)N4CCC(N5CCCCC5)CC4)cc13)-c1cc3c(c(=O)n1C2)COC(=O)[C@]3(O)CC [CPT-11]")
5.43
>>> observed_value("C[C@]12O[C@H](C[C@]1(O)CO)n1c3ccccc3c3c4c(c5c6ccccc6n2c5c31)CNC4=O [Lestaurtinib]")
6.46

###

Test system: HCC1954
Assay: -log10 GI50 (growth inhibition 50%) (-log10(M)); higher = more potent growth inhibition
QUANTITY KIND: -log10 GI50

>>> observed_value("Cn1c(=O)n(-c2ccc(C(C)(C)C#N)cc2)c2c3cc(-c4cnc5ccccc5c4)ccc3ncc21")
7.28
>>> observed_value("CCn1cc(-c2ccnc3[nH]c(-c4cccc(CN(C)C)c4)cc23)c(-c2ccc(NC(=O)N(C)C)cc2)n1")
5.57
>>> observed_value("CCNCCCNC/C=C\\CNCCCNCC")
6.52
>>> observed_value("O=C(/C=C/C#Cc1cccc(NS(=O)(=O)c2ccccc2)c1)NO")
5.81
>>> observed_value("O=C(O)C1(C(=O)O)CCC1.[NH2-].[NH2-].[Pt+2]")
4.42
>>> observed_value("COc1cc2ncnc(Nc3cccc(Cl)c3)c2cc1OC")
5.64

(a) CS(=O)(=O)CCNCc1ccc(-c2ccc3ncnc(Nc4ccc(OCc5cccc(F)c5)c(Cl)c4)c3c2)o1
(b) CC(=O)O[C@@]12CO[C@@H]1C[C@H](O)[C@@]1(C)C(=O)[C@H](O)C3=C(C)[C@@H](OC(=O)[C@H](O)[C@@H](NC(=O)OC(C)(C)C)c4ccccc4)C[C@@](O)([C@@H](OC(=O)c4ccccc4)[C@H]21)C3(C)C
Hey, between a and b which has a smaller measured -log10 GI50? Give the label under which the chosen entry appears.
a

Values were extracted from the supplement of paper PMC3937590.
